Would you kindly list abundance fitness for each of these variants?
B1: WW domain-containing transcription regulator protein 1, residues 116 to 162; numbered along this chain, Q9GZV5 (parent)
chain: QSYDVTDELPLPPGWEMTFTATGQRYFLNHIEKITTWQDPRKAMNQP

Variants of: B1
Experiment: abundance fitness (aPCA) (normalised: wild type 0, dead -1); higher = more abundant; growth selection in yeast, the domain comes from the species named
Conditions: Homo sapiens
Lab note: jot down the number only; don't add units.

Given the variant `T35S` , what is its reported abundance fitness?
-0.072

# abundance fitness lookup, item `F27N`
-0.859

# abundance fitness lookup, item `P12T`
-0.758

Suppose we examine the variant `L11M` ; what abundance fitness value has been reported?
-0.07

Item `V5G` has what recorded abundance fitness?
-0.194

Reported abundance fitness, variant `H30T` : ____
-0.106
